Value source: patent US7659277B2

For each of the compounds below, state its remaining activity at 1 µM.
molecular target: Hmdm2 (Homo sapiens, UniProt Q00987); test: Selectivity (% A in 1 μM), ubiquitin ligase activity of Hmdm2; assay type: biochemical; conditions: % activity at 1 μM compound; control is related to 100% activity; HTS protocol; read-out: Selectivity (% A* in 1 μM) Hmdm2
Sequence (Q00987 whole entry): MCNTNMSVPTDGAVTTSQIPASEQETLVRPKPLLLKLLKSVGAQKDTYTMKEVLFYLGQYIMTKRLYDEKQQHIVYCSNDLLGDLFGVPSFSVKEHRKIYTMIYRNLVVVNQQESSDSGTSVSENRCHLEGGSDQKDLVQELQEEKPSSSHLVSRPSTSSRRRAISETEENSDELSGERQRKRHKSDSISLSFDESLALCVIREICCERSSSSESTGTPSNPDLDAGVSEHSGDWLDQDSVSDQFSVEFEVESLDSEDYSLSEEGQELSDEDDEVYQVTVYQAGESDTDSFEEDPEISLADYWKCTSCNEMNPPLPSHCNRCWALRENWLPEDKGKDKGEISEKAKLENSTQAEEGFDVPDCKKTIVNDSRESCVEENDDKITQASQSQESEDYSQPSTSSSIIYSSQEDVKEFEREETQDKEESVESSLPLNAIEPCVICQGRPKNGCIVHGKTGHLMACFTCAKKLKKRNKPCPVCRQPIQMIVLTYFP
Numbers only, in %.

I have 8 compounds here; please give me remaining activity at 1 µM for each one.
1. COc1ccc(/C=C2\C(=O)NC(=S)N(c3ccccc3)C2=O)cc1
2. COc1cc(C=C2C(=O)N(C)C(=S)N(C)C2=O)ccc1O
3. Oc1c(Br)cc(Br)cc1/C=N/c1ccc(Br)cn1
4. Cc1ccc2nc(-c3ccc(/N=C/c4ccc([N+](=O)[O-])s4)cc3)sc2c1
5. COc1ccc(N2C(=O)NC(=O)/C(=C\c3ccc(Cl)cc3)C2=O)cc1
6. O=C(/C=C/c1cccnc1)c1ccc(C(=O)/C=C/c2cccnc2)cc1
7. COc1ccc(/C=C/C(=O)C2C(=O)CCC2=O)cc1OC
8. CCOC(=O)c1c(/N=C/c2cc(Br)ccc2O)sc2c1CCCC2

1. 95
2. 103
3. 131
4. 124
5. 101
6. 105
7. 101
8. 110

I have 3 compounds here; please give me remaining activity at 1 µM for each one.
1. CC(C)Oc1ccc(/C=C2/SC(=S)NC2=O)cc1
2. Oc1ccc2ccccc2c1/C=N/c1ncc(Br)cc1Br
3. COC(=O)C1=C(C(=O)OC)SC(=C2C(=S)C(C)(C)N(C(C)=O)c3cc(C)ccc32)S1

1. 98
2. 120
3. 101

I have 3 compounds here; please give me remaining activity at 1 µM for each one.
1. O=C1C(=Cc2ccco2)C(=O)N(c2ccccc2)C(=S)N1c1ccccc1
2. Oc1c(Br)cc(Br)cc1/C=N/c1cccc2nsnc12
3. O=C1NC(=O)N(c2ccccc2)C(=O)/C1=C\c1ccc2c(c1)OCO2

1: 11; 2: 113; 3: 105

I have 8 compounds here; please give me remaining activity at 1 µM for each one.
1. O=[N+]([O-])c1ccc(Cl)cc1CN1CCN(CCO)CC1
2. Cc1cc(I)ccc1NCn1nnc2ccccc21
3. O=C1N=C(c2ccccc2)S/C1=C/c1ccc(-c2cccc([N+](=O)[O-])c2)o1
4. O=C1NC(=O)/C(=C\c2ccc(-c3ccc(F)cc3)o2)S1
5. O=[N+]([O-])c1ccc2c(c1)Cc1cc(/N=C/c3ccc(Br)cc3)ccc1-2
6. O=C1C=CC(=O)N1c1cc(Cl)cc(Cl)c1
7. Oc1c(Br)cc(Cl)cc1/C=N/c1ccccn1
8. COc1ccccc1/C=C1\N=C(c2ccccc2Cl)OC1=O

1: 120; 2: 102; 3: 71; 4: 108; 5: 104; 6: 107; 7: 115; 8: 115

I have 6 compounds here; please give me remaining activity at 1 µM for each one.
1. Oc1ccc(/N=C/c2cccs2)cc1-c1nc2ccccc2s1
2. COc1cc(/C=C2\SC(=O)NC2=O)ccc1OCc1ccc(Cl)cc1Cl
3. O=C(C(Cl)Cl)N1CCN(c2ccc([N+](=O)[O-])cc2)CC1
4. O=c1/c(=C/c2cccc([N+](=O)[O-])c2O)sc2nc3ccccc3n12
5. Oc1c(Br)cc(Br)cc1/C=N/c1nc2ccccc2s1
6. COc1cc(N/C=C2/C(=O)NC(=S)N(c3cccc(C)c3)C2=O)cc(OC)c1

1: 78; 2: 123; 3: 94; 4: 80; 5: 120; 6: 86

I have 7 compounds here; please give me remaining activity at 1 µM for each one.
1. O=C1/C(=C\c2ccc(Cl)c([N+](=O)[O-])c2)Sc2ccccc21
2. COc1ccccc1N1C(=O)NC(=O)/C(=C\C=C\c2ccccc2)C1=O
3. COC(=O)c1ccc(N2C(=O)c3cccc(N)c3C2=O)cc1
4. Cc1ccc(/C=N/c2ccc(C(N)=O)cc2)o1
5. N/N=C\c1ccc(-c2cccs2)s1
6. Cc1cc(C)c(O)c(/N=C/c2c(O)ccc3ccccc23)c1
7. Oc1c(Cl)cc(Cl)cc1/C=N/c1ccc(-c2nc3ccccc3[nH]2)cc1

1: 98; 2: 116; 3: 80; 4: 96; 5: 107; 6: 98; 7: 102

I have 3 compounds here; please give me remaining activity at 1 µM for each one.
1. Oc1c(Br)cc(Cl)cc1/C=N/c1ccccc1Br
2. COc1ccc(Nc2ccc(O)c3c2C(=O)c2ccccc2C3=O)cc1
3. O=[N+]([O-])c1ccc(-c2ccc(/N=C/c3c(O)ccc4ccccc34)cc2)cc1

[102, 75, 90]
